Target: T1, MC4r (human recombinant, CHO cells) (human, UniProt P32245 1-332)
T1 construct: whole, on cells
T1 sequence (P32245 whole entry): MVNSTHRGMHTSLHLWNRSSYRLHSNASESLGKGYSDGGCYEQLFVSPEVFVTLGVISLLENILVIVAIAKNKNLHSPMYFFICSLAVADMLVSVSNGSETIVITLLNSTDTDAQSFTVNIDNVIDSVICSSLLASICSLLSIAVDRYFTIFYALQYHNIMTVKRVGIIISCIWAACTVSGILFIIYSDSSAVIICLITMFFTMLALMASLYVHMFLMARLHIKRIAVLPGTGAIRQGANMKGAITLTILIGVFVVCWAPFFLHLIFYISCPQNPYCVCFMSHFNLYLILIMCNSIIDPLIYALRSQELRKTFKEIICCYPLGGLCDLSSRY
Test: displacement of 125I-NDP-αMSH, CHO cells expressing human MC4r (method of Example 2, not restated)
ENDPOINT: Ki (nM)
Give the quantity in nM, number only.

Reported Ki, binder KYVMGHFRWDRFG (alpha-amino group of Lys1 acetylated; Ac-Lys-Lys attached to the epsilon-amino group of Lys1; D-Trp at position 9; C-terminal amide) [γ-MSH Analogue 1: Ac-(Ac-Lys-Lys)Lys-Tyr-Val-Met-Gly-His-Phe-Arg-DTrp-Asp-Arg-Phe-Gly-NH2] : ____
150
